Test system: Escherichia coli
Test: Antibacterial activity against duck Escherichia coli clinical isolates measured after 120 days of sample dissolution by serial dilution method
Assay type: functional
Below, each entry is listed with its recorded MIC.

A selection of reference data follows.
compound	MIC
NC1CCN(c2c(F)cc3c(=O)c(C(=O)O)cn(C4CC4)c3c2Cl)C1 (stereo not given)	2 µg/mL
O=C(Cn1ccnn1)NC1CCN(c2c(F)cc3c(=O)c(C(=O)O)cn(C4CC4)c3c2Cl)C1 (stereo not given)	> 16 µg/mL
Nc1ccn(CC(=O)NC2CCN(c3c(F)cc4c(=O)c(C(=O)O)cn(C5CC5)c4c3Cl)C2)n1 (stereo not given)	> 16 µg/mL

// field: MIC; key: Nc1nnc(SCC(=O)NC2CCN(c3c(F)cc4c(=O)c(C(=O)O)cn(C5CC5)c4c3Cl)C2)s1 (stereo not given) ; value = > 16 µg/mL

// field: MIC; key: Nc1n[nH]c(SCC(=O)NC2CCN(c3c(F)cc4c(=O)c(C(=O)O)cn(C5CC5)c4c3Cl)C2)n1 (stereo not given) ; value = > 16 µg/mL
